- System: SW-620 colon
- method.notes: NCI-60 one-dose screen, 48 h
- run.conditions: 10 µM
The panel holds about 83,000 compounds, 20% with a hit somewhere; the sample as a whole holds those more often. The source made the active and inactive calls. Rule for the calls: active = growth percent below 10; inactive = the rest.
Write down the outcome that applies. Available outcomes: active, inactive

| molecule | assigned.category |
| --- | --- |
| C/C(=N\O)c1ccc(NC(=O)CSc2nnc(-c3ccccc3)n2-c2ccccc2)cc1 | inactive |
| O=C(Nc1ccccc1)Nc1ncnc2c1ncn2-c1ccccc1 | inactive |
| CCc1cc(Cl)c(OC)c(C(=O)NCC2CCCN2CC)c1O (stereo not drawn) | inactive |
| Cc1ccc(-c2c3c(N)nc(-c4cccnc4)nc3nc3c2c(C)nn3-c2ccccc2)cc1 | inactive |
| C/C=C/CSC(C)(C)C(=O)NC | inactive |
| CCOC(=O)C1=CSC2=NC3=C(CCC/C3=C\c3ccc(Cl)cc3)C(c3ccc(Cl)cc3)N12 (stereo not drawn) | inactive |

Task item: Tell me the recorded outcome of this test for CN(C)CCCOc1cccc(NC2=C(Cl)C(=O)C(Nc3cccc(OCCCN(C)C)c3)=C(Cl)C2=O)c1 .
Reply: active

Task item: # fetch the recorded call for OCC1OC2C(NC(=S)N2c2ccccc2)C(O)C1O (stereo not drawn) here
Reply: inactive

Task item: // param item: COC(=O)C1OC1c1cc([N+](=O)[O-])ccc1OC (stereo not drawn) ; yields the recorded call
Reply: inactive

Task item: Tell me the assay call for CCN1C(=O)CC(SC2CC(=O)N(CC)C2=O)C1=O (stereo not drawn) please.
Reply: inactive

Task item: Test call, this molecule: CC(=O)C1CCC2C3CC=C4CC(SC(=N)N)CCC4(C)C3CCC12C (stereo not drawn)
Reply: active
